Give clearance for every item shown.
# procedure-text: Metabolic stability in rat microsomes assessed as intrinsic clearance per mg protein
# Format: ADME, Microsome
Return type: number; implicit unit µL/min/mg.

**Query** Item O=C(Nc1nc(C(F)(F)F)co1)C1c2ccccc2Oc2ccccc21 has what recorded clearance?
**Result** 108

**Query** Quick one: O=C(Nc1nc(C(F)(F)F)co1)C1c2ccccc2Oc2c(F)cccc21 (racemic)
**Result** 33

**Query** Quick one: O=C(Nc1ncc(C(F)(F)F)o1)C1c2ccccc2Oc2ccccc21
**Result** 50

**Query** Quick one: O=C(Nc1nc(C(F)(F)F)co1)C1c2cccc(F)c2Oc2c(F)cccc21
**Result** 18

**Query** Quick one: Cc1nc(NC(=O)C2c3ccccc3Oc3ccccc32)no1
**Result** 42

**Query** Quick one: O=C(Nc1nc(C(F)(F)F)co1)C1c2ccccc2Oc2ccc(F)cc21 (racemic)
**Result** 61

**Query** Quick one: O=C(Nc1ncc(C(F)(F)F)o1)C1c2ccccc2Oc2c(F)cccc21 (racemic)
**Result** 32

**Query** Quick one: O=C(Nc1ncc(C(F)(F)F)o1)C1c2cccc(F)c2Oc2c(F)cccc21
**Result** 12

**Query** Quick one: O=C(Nc1nc(C(F)(F)F)co1)C1c2cc(F)ccc2Oc2ccc(F)cc21
**Result** 9

**Query** Quick one: O=C(Nc1nc(C(F)(F)F)co1)C1c2ccc(F)cc2Oc2cc(F)ccc21
**Result** 38

Data provenance is ChEMBL document CHEMBL1153313.
